System: Neisseria gonorrhoeae
assay-procedure: MIC determination, Neisseria gonorrhoeae
Format: cell-based
stated-conditions: strain F89
Positions of bridges follow the written chain, without caps; N, C: chain ends. Non-standard residues stand in square brackets, D forms with d. Residues, ends and D or L forms follow the SMILES beside them. *: point of attachment. Decanoyl(3R-OH) = CCCCCCC[C@@H](O)CC(=O)*; dDap = NC[C@@H](N)C(=O)O; Dab = NCC[C@H](N)C(=O)O
endpoint: MIC N. gonorrhoeae F89 (µg/mL)
The response must be a number in µg/mL with no trailing unit.

Please list MIC N. gonorrhoeae F89 recorded for the compound CCCCCCC[C@@H](O)CC(=O)N[C@H](CN)C(=O)N[C@H]1CCNC(=O)[C@H](CC(C)C)NC(=O)[C@H](CCN)NC(=O)[C@H](CCN)NC(=O)[C@H](CC(C)C)NC(=O)[C@@H](Cc2ccccc2)NC(=O)[C@H](CCN)NC1=O [compound 6442] ({Decanoyl(3R-OH)}-[dDap][Dab][Dab][dF]L[Dab][Dab]L; lactam 2-C)
1.56
